Listed here: compounds with reported Ki for Tyrosinase (Agaricus bisporus, UniProt O42713).

# COMPOUND, UNIT_LABEL, Ki
measured = [
    ("COc1cc([C@H]2Oc3c(O)cc([C@H]4Oc5cc(O)cc(O)c5C(=O)[C@@H]4O)cc3[C@@H]2CO)ccc1O [SILICRISTIN B]", "µM", 35.5),
    ("COc1cc(C2Oc3cc([C@H]4Oc5cc(O)cc(O)c5C(=O)[C@@H]4O)ccc3OC2CO)ccc1O (mixture of isomers) [SILIBININ]", "µM", 8.5),
    ("COc1cc([C@@H]2[C@H]3CO[C@@]4(O)C(=O)[C@@H]2C=C([C@H]2Oc5cc(O)cc(O)c5C(=O)[C@@H]2O)[C@@H]34)ccc1O [SILIDIANIN]", "µM", 14.9),
    ("COc1cc([C@@H]2Oc3c(O)cc([C@H]4Oc5cc(O)cc(O)c5C(=O)[C@@H]4O)cc3[C@H]2CO)ccc1O [SILICRISTIN A]", "µM", 15.4),
    ("COc1cc([C@@H]2Oc3c(O)cc(-c4oc5cc(O)cc(O)c5c(=O)c4O)cc3[C@H]2CO)ccc1O", "µM", 36.7),
    ("COc1cc([C@@H]2Oc3ccc([C@H]4Oc5cc(O)cc(O)c5C(=O)[C@@H]4O)cc3O[C@H]2CO)ccc1O [ISOSILYBIN B]", "µM", 11.6),
    ("COc1cc([C@H]2Oc3ccc([C@H]4Oc5cc(O)cc(O)c5C(=O)[C@@H]4O)cc3O[C@@H]2CO)ccc1O [ISOSILYBIN A]", "µM", 12.4),
]

* * *

Each entry below carries its reported IC50.
target: Tyrosinase (Agaricus bisporus, UniProt O42713); assay: Inhibition of monophenolase activity of mushroom tyrosinase assessed as reduction in dopachrome formation using L-Tyrosine substrate by UV-Vis spectrophotometry
Sequence (O42713 whole entry): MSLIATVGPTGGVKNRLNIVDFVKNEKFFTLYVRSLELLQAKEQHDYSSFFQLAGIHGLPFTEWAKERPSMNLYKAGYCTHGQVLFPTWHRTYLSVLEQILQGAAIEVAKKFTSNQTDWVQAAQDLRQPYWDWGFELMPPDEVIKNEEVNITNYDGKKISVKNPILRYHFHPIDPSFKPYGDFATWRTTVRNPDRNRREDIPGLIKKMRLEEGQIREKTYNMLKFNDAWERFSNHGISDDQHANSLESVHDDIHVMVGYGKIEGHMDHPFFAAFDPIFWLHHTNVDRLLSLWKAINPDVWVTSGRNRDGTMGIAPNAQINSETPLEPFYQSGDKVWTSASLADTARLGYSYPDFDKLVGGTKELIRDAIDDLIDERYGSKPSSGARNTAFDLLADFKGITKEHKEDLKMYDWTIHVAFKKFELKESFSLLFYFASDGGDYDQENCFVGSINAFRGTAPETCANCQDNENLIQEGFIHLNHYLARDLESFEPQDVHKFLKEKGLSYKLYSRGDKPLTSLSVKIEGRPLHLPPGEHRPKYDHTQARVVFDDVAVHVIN

# COMPOUND_STRING, SYSTEM_UNDER_TEST, IC50
data = [
    ("COc1cc([C@@H]2[C@H]3CO[C@@]4(O)C(=O)[C@@H]2C=C([C@H]2Oc5cc(O)cc(O)c5C(=O)[C@@H]2O)[C@@H]34)ccc1O", "Tyrosinase (Agaricus bisporus, UniProt O42713)", "2.6 µM"),
    ("COc1cc([C@@H]2Oc3c(O)cc(-c4oc5cc(O)cc(O)c5c(=O)c4O)cc3[C@H]2CO)ccc1O", "Tyrosinase (Agaricus bisporus, UniProt O42713)", "7.6 µM"),
    ("COc1cc([C@@H]2Oc3c(O)cc([C@H]4Oc5cc(O)cc(O)c5C(=O)[C@@H]4O)cc3[C@H]2CO)ccc1O", "Tyrosinase (Agaricus bisporus, UniProt O42713)", "3.2 µM"),
]
